Data provenance is the supplement of paper PMC12855868.

B1: library; numbered along this chain (parent)
chain: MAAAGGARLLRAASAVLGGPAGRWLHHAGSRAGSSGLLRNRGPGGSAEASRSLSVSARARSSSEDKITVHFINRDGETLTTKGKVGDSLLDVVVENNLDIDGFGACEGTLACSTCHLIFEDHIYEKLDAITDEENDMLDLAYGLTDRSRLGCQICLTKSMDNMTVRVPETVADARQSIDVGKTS

- Variants of: B1
- testName: scaled log2 fold change in cell abundance, elesclomol vs control (0 = silent mean, 1 = nonsense mean) (scaled log2 ratio); higher = higher viability under elesclomol (loss of FDX1 cuproptosis function);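 further: variant abundance is its share of total variant reads in each endpoint sample, from next-generation sequencing of the integrated ORF PCR-amplified out of genomic DNA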
- measurementSetup: with ABC1 FDX1 KO; elesclomol 5 nM; glucose 10 mM; 14 days
Give rule met when the value for scaled log2 fold change is at least -0.1. Give rule not met when it is less.

Study these solved cases before continuing.
[
  {
    "mutationKey": "V94N",
    "categoryLabel": "rule not met"
  },
  {
    "mutationKey": "G6Q",
    "categoryLabel": "rule met"
  },
  {
    "mutationKey": "A129V",
    "categoryLabel": "rule met"
  }
]

input: Say whether `H116A` shows scaled log2 fold change of -0.1 or more.
output: rule met

input: Could you verify whether the entry `S54F` shows scaled log2 fold change of no less than -0.1?
output: rule met

input: Can `L53H` be said to have scaled log2 fold change at or above -0.1?
output: rule met

input: Could you please find out whether `A12E` has scaled log2 fold change that meets -0.1 or exceeds it?
output: rule met

input: Given `L37F` , state whether its scaled log2 fold change is at least -0.1.
output: rule met

input: For this variant, is measured scaled log2 fold change -0.1 or higher? `R166T`
output: rule met

input: Could you verify whether the entry `L138E` shows scaled log2 fold change of no less than -0.1?
output: rule met

input: Hello, I need to know if `F119D` has measured scaled log2 fold change not below -0.1. Thanks!
output: rule met

input: Decide: scaled log2 fold change of `S113H` >= -0.1?
output: rule met

input: Decide: scaled log2 fold change of `L17F` >= -0.1?
output: rule not met

input: Test whether the variant `Y142S` records scaled log2 fold change of -0.1 or higher.
output: rule not met

input: Entry `D75S` : is its scaled log2 fold change no less than -0.1?
output: rule met

input: Decide: is the reported value of scaled log2 fold change for `N40S` equal to or greater than -0.1?
output: rule met

input: Answer whether scaled log2 fold change of `D121P` is greater than or equal to -0.1.
output: rule not met

input: Can `E125T` be said to have scaled log2 fold change at or above -0.1?
output: rule met

input: # bool: scaled log2 fold change of `S46I` >= -0.1
output: rule met

input: Assess whether reported scaled log2 fold change for `D161F` sits at -0.1 or higher.
output: rule met

input: API: above_or_equal(metric=scaled log2 fold change, cutoff=-0.1) for item `G45W`
output: rule met

input: hey, is scaled log2 fold change for this one >= -0.1? `L79E`
output: rule met
